System: rat hepatic microsomes
Assay: Stimulation of adrenochrome formation (superoxide generation) in rat hepatic microsomal incubations
Details: SOD (superoxide dismutase) 5 μg/mL added
*1 amine or outer side, *2 acyl side, *3 side chain or, on linkers, in order; H or OH if unused. Where a SMILES comes first, the peptide text is derived from it. Bridges are numbered along the chain shown (N, C = ends). Roman numbers before positions name the chains, in order. [ ]: non-standard residue; d: D form. Actinocin(9to1) = Cc1c2oc3c(C)ccc(C(=O)[*:1])c3nc-2c(C(=O)[*:2])c(N)c1=O; NMeV = CN[C@H](C(=O)O)C(C)C; Sar = CNCC(=O)O
endpoint: adrenochrome formation in presence of SOD

{"compound": "Cc1c2oc3c(C)c(O)cc(C(=O)N[C@@H]4C(=O)N[C@H](C(C)C)C(=O)N5CCC[C@H]5C(=O)N(C)CC(=O)N(C)[C@@H](C(C)C)C(=O)O[C@@H]4C)c3nc-2c(C(=O)N[C@@H]2C(=O)N[C@H](C(C)C)C(=O)N3CCC[C@H]3C(=O)N(C)CC(=O)N(C)[C@@H](C(C)C)C(=O)O[C@@H]2C)c(N)c1=O [2a, 7-hydroxyactinomycin D, reference compound]", "measured_value": "inhibited"}
{"compound": "Cc1c2oc3c(C)ccc(C(=O)N[C@@H]4C(=O)N[C@H](C(C)C)C(=O)N5CCC[C@H]5C(=O)N(C)CC(=O)N(C)[C@@H](C(C)C)C(=O)O[C@@H]4C)c3nc-2c(C(=O)N[C@@H]2C(=O)N[C@H](C(C)C)C(=O)N3CCC[C@H]3C(=O)N(C)CC(=O)N(C)[C@@H](C(C)C)C(=O)O[C@@H]2C)c(N)c1=O [AMD, Actinomycin D] (I: T[dV]P[Sar][NMeV] / II: T[dV]P[Sar][NMeV]; ester I:1-I:C, II:1-II:C; linker I:N-II:N via Actinocin(9to1))", "measured_value": "inhibited"}
{"compound": "Cc1nc2c(C(=O)NC3C(=O)NC(C(C)C)C(=O)N4CCCC4C(=O)N(C)CC(=O)N(C)C(C(C)C)C(=O)OC3C)c3nc4c(C(=O)NC5C(=O)NC(C(C)C)C(=O)N6CCCC6C(=O)N(C)CC(=O)N(C)C(C(C)C)C(=O)OC5C)cc(=O)c(C)c-4oc3c(C)c2o1 (stereo not drawn)", "measured_value": "inhibited"}

====

Target: NADPH cytochrome P-450 reductase (rat liver microsomes) (Rattus norvegicus, UniProt P00388)
Sequence (P00388 whole entry): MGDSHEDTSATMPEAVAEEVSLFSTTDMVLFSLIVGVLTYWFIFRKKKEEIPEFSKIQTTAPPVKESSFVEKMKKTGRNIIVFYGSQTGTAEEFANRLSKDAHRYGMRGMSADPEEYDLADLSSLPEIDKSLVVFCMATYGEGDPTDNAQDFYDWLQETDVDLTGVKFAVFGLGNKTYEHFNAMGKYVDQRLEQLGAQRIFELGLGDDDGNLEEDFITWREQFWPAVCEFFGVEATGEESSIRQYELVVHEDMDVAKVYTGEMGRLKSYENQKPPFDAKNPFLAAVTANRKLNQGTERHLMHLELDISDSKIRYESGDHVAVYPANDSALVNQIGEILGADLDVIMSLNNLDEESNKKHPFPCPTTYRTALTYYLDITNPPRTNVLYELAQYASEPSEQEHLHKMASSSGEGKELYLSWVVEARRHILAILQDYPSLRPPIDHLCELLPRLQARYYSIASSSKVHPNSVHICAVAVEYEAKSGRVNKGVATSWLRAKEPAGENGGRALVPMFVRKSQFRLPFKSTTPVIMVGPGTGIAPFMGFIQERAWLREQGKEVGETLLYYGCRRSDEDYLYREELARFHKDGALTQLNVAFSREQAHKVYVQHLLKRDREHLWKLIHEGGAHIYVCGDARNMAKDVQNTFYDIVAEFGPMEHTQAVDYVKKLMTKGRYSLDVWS
Test: Stimulation of NADPH oxidation in rat hepatic microsomal incubations
Conditions: (drug-stimulated rate - basal rate)/basal rate × 100
*1 amine or outer side, *2 acyl side, *3 side chain or, on linkers, in order; H or OH if unused. Where a SMILES comes first, the peptide text is derived from it. Bridges are numbered along the chain shown (N, C = ends). Roman numbers before positions name the chains, in order. [ ]: non-standard residue; d: D form. Actinocin(9to1) = Cc1c2oc3c(C)ccc(C(=O)[*:1])c3nc-2c(C(=O)[*:2])c(N)c1=O; NMeV = CN[C@H](C(=O)O)C(C)C; Sar = CNCC(=O)O
endpoint: percentage stimulation of NADPH oxidation over basal rate (%)
Output spec: scalar in %, unitless text.

Need percentage stimulation of NADPH oxidation over basal rate, item Cc1c2oc3c(C)ccc(C(=O)N[C@@H]4C(=O)N[C@H](C(C)C)C(=O)N5CCC[C@H]5C(=O)N(C)CC(=O)N(C)[C@@H](C(C)C)C(=O)O[C@@H]4C)c3nc-2c(C(=O)N[C@@H]2C(=O)N[C@H](C(C)C)C(=O)N3CCC[C@H]3C(=O)N(C)CC(=O)N(C)[C@@H](C(C)C)C(=O)O[C@@H]2C)c(N)c1=O [AMD, Actinomycin D] (I: T[dV]P[Sar][NMeV] / II: T[dV]P[Sar][NMeV]; ester I:1-I:C, II:1-II:C; linker I:N-II:N via Actinocin(9to1))
9.9

Then what about the compound Cc1nc2c(C(=O)NC3C(=O)NC(C(C)C)C(=O)N4CCCC4C(=O)N(C)CC(=O)N(C)C(C(C)C)C(=O)OC3C)c3nc4c(C(=O)NC5C(=O)NC(C(C)C)C(=O)N6CCCC6C(=O)N(C)CC(=O)N(C)C(C(C)C)C(=O)OC5C)cc(=O)c(C)c-4oc3c(C)c2o1 (stereo not drawn) ?
110

Same read-out for CCN(CC)C(=O)c1c2nc3c(C(=O)N(CC)CC)cc(O)c(C)c3oc-2c(C)c(=O)c1N ?
-2

====

Test system: B16 melanoma
Test: In vivo antitumor activity against B16 melanoma
Design: species or system BDF1 mice
Conditions: ip, days 1, 5, 9
*1 amine or outer side, *2 acyl side, *3 side chain or, on linkers, in order; H or OH if unused. Where a SMILES comes first, the peptide text is derived from it. Bridges are numbered along the chain shown (N, C = ends). Roman numbers before positions name the chains, in order. [ ]: non-standard residue; d: D form. Actinocin(9to1) = Cc1c2oc3c(C)ccc(C(=O)[*:1])c3nc-2c(C(=O)[*:2])c(N)c1=O; NMeV = CN[C@H](C(=O)O)C(C)C; Sar = CNCC(=O)O
Listed below: optimal dose values for each entry.
Output spec: scalar in μg/kg per inj, unitless text.

For the compound shown here, Cc1c2oc3c(C)ccc(C(=O)N[C@@H]4C(=O)N[C@H](C(C)C)C(=O)N5CCC[C@H]5C(=O)N(C)CC(=O)N(C)[C@@H](C(C)C)C(=O)O[C@@H]4C)c3nc-2c(C(=O)N[C@@H]2C(=O)N[C@H](C(C)C)C(=O)N3CCC[C@H]3C(=O)N(C)CC(=O)N(C)[C@@H](C(C)C)C(=O)O[C@@H]2C)c(N)c1=O [AMD, Actinomycin D] (I: T[dV]P[Sar][NMeV] / II: T[dV]P[Sar][NMeV]; ester I:1-I:C, II:1-II:C; linker I:N-II:N via Actinocin(9to1)) , give the reported optimal dose.
250

Here is the next compound: Cc1c2oc3c(C)c(O)cc(C(=O)N[C@@H]4C(=O)N[C@H](C(C)C)C(=O)N5CCC[C@H]5C(=O)N(C)CC(=O)N(C)[C@@H](C(C)C)C(=O)O[C@@H]4C)c3nc-2c(C(=O)N[C@@H]2C(=O)N[C@H](C(C)C)C(=O)N3CCC[C@H]3C(=O)N(C)CC(=O)N(C)[C@@H](C(C)C)C(=O)O[C@@H]2C)c(N)c1=O [2a, 7-hydroxyactinomycin D, reference compound]
1200

Input Cc1nc2c(C(=O)NC3C(=O)NC(C(C)C)C(=O)N4CCCC4C(=O)N(C)CC(=O)N(C)C(C(C)C)C(=O)OC3C)c3nc4c(C(=O)NC5C(=O)NC(C(C)C)C(=O)N6CCCC6C(=O)N(C)CC(=O)N(C)C(C(C)C)C(=O)OC5C)cc(=O)c(C)c-4oc3c(C)c2o1 (stereo not shown) [9a]
750

What do you get for Cc1c2oc3c(C)c4oc(-c5ccccc5)nc4c(C(=O)NC4C(=O)NC(C(C)C)C(=O)N5CCCC5C(=O)N(C)CC(=O)N(C)C(C(C)C)C(=O)OC4C)c3nc-2c(C(=O)NC2C(=O)NC(C(C)C)C(=O)N3CCCC3C(=O)N(C)CC(=O)N(C)C(C(C)C)C(=O)OC2C)c(N)c1=O (stereo not shown) [8a] ?
300

Param item: Cc1nc2c(C(=O)NC3C(=O)NC(C(C)C)C(=O)N4CCCC4C(=O)N(C)CC(=O)N(C)C(C(C)C)C(=O)OC3C)c3nc4c(C(=O)NC5C(=O)NC(C(C)C)C(=O)N6CCCC6C(=O)N(C)CC(=O)N(C)C(C(C)C)C(=O)OC5C)c(N)c(=O)c(C)c-4oc3c(C)c2o1 (stereo not shown) [7a]
300

Cc1c2oc3c(C)c(O)c(N)c(C(=O)NC4C(=O)NC(C(C)C)C(=O)N5CCCC5C(=O)N(C)CC(=O)N(C)C(C(C)C)C(=O)OC4C)c3nc-2c(C(=O)NC2C(=O)NC(C(C)C)C(=O)N3CCCC3C(=O)N(C)CC(=O)N(C)C(C(C)C)C(=O)OC2C)c(N)c1=O (stereo not shown) [4a, 7-Hydroxy-8-amino-actinomycin D] ?
300

Also need Cc1c2oc3c(C)c4oc(-c5ccccc5)nc4c(C(=O)NC4C(=O)NC(C(C)C)C(=O)N5CCCC5C(=O)N(C)CC(=O)N(C)C(C(C)C)C(=O)OC4C)c3nc-2c(C(=O)NC2C(=O)NC(C(C)C)C(=O)N3CCCC3C(=O)N(C)CC(=O)N(C)C(C(C)C)C(=O)OC2C)cc1=O (stereo not shown) [10a, 2-Phenyl-AMD--OZL] , thanks.
900

====

Test system: CCRF-CEM human lymphoblastic leukemic cells
Test: In vitro cytotoxicity against CCRF-CEM cells
Assay type: cell-based
Details: 48 hr
endpoint: in vitro (CCRF-CEM) ID50 (nM)
Quick note: give the figure in nM, leave out the unit.

{"molecule": "Cc1c2oc3c(C)c(O)c(N)c(C(=O)NC4C(=O)NC(C(C)C)C(=O)N5CCCC5C(=O)N(C)CC(=O)N(C)C(C(C)C)C(=O)OC4C)c3nc-2c(C(=O)NC2C(=O)NC(C(C)C)C(=O)N3CCCC3C(=O)N(C)CC(=O)N(C)C(C(C)C)C(=O)OC2C)c(N)c1=O (centres unmarked) [4a, 7-Hydroxy-8-amino-actinomycin D]", "in vitro (CCRF-CEM) ID50 / nM": 30}

Now consider a different molecule.
// lookup in vitro (CCRF-CEM) ID50 for Cc1c2oc3c(C)c4oc(-c5ccccc5)nc4c(C(=O)NC4C(=O)NC(C(C)C)C(=O)N5CCCC5C(=O)N(C)CC(=O)N(C)C(C(C)C)C(=O)OC4C)c3nc-2c(C(=O)NC2C(=O)NC(C(C)C)C(=O)N3CCCC3C(=O)N(C)CC(=O)N(C)C(C(C)C)C(=O)OC2C)c(N)c1=O (centres unmarked) [8a]
30
